# Test system: MS2 coat protein
# assay_overview: apparent KD of MS2 coat protein; designed switch direction (-1 OFF switch, 1 ON switch): 1; higher = weaker reporter binding
# test_settings: input ligand: FMN 200 uM
Assign 1.0 to entries whose apparent KD of MS2 coat protein meets or exceeds 80 nM; assign 0.0 to the rest.

Solved entries:
{"columns": ["residue_sequence", "group_label"],
 "data": [
  ["GGAGGACAUGAGGAUCACCCAUGUGGAUGGGCGCUAGGAUAUGCGUGCGGGAAGAGUGGAGCAGAAGGAGUGGGUU [JR_SS1_Sub045] (Eterna round: R96, puzzle: Same State 1)", 0.0],
  ["GCUCGAUGAAAGUCCUACAUGAGGAUCACCCAUGUACGUGGGCAGGAUAUCUACAUGCAGAAUGUAGAGAAGGGCCCAUCGAGC [SameState NG3 #59] (Eterna round: R96, puzzle: Same State NG 3)", 0.0],
  ["GCUAGAAUUAAUGCCAACAUGAGGAUCACCCAUGUAUGUUGGCAGGAUAUCGUUUGCUUUGCAAACGAGAAGGGCUAAACUAGC [JL SSNG3 1.03] (Eterna round: R96, puzzle: Same State NG 3)", 1.0]
]}

In: Textbook exercise: given the entry GGAGCCGGCCUAGGAUAUUUCAUAUUAAAACAUGAGGAUCACCCAUGUAGGCCAGAAGGCCUUGGGAAGAAGGAGGUCGGCUCC [Loop Effect - U25,U26] (Eterna round: R96, puzzle: Same State NG 2) , state whether its apparent KD of MS2 coat protein is greater than or equal to 80 nM.
Out: 0.0

In: Textbook exercise: given the entry GCUACGGACGUAGGAUAUGUAGGAUAUGGCGAGAGCUAAGCUUGGAAGUCACUUCAGCCAGAAGGACAGAAGGACGCCGUGAGG [pwkr ssNG2 2FMN + F9.17] (Eterna round: R96, puzzle: Same State NG 2) , state whether its apparent KD of MS2 coat protein is greater than or equal to 80 nM.
Out: 1.0

====

Measured apparent KD of MS2 coat protein by item
# Test system: MS2 coat protein
# assay_overview: apparent KD of MS2 coat protein; designed switch direction (-1 OFF switch, 1 ON switch): -1; higher = weaker reporter binding
# test_settings: input ligand: FMN 200 uM
Write the quantity with the unit trailing the number.

{"columns": ["residue_sequence", "apparent KD of MS2 coat protein"],
 "data": [
  ["GGCCUUCCGCAAGCUUUUUACAUGAGGAUCACCCAUGUGAUUUUUAGUCUUAUGCCCGGGCCCGUGUGGGCCCGGGC [-34.8, -55.6, A 14%] (Eterna round: R97, puzzle: Sensor, turn-off variant 1)", "23.4 nM"],
  ["GCUAGAGCAGGAUAUCUAGAUCCACACAUGAGGAUCACCCAUGUACGGUCGAAAGACCGAAGAGAAGGGCUCUAGC [Omei Ex5 E12] (Eterna round: R97, puzzle: Exclusion 5)", "98.5 nM"],
  ["CAACAUGGACCUCGCUCCGACAUGAGGAUCACCCAUGUUGGAACCUUACUGGCGUCGAGUGUUGCUCGUCUUACCGU [Eternabot (Original) Solution 10] (Eterna round: R97, puzzle: Sensor, turn-off variant 1)", "189 nM"],
  ["GACCCACAUGAGGAUCACCCAUGUGAGGAUAUCAUGCUUCGUAGUAAACUACGAAGUGUGAGAAGGCACAAUGG [Omei Ex1 C7] (Eterna round: R97, puzzle: Exclusion 1)", "134 nM"]
]}

In: So what does the record say about apparent KD of MS2 coat protein for AACCUGAGGCUUUGCUUUAGGUGUACAUGAGGAUCACCCAUGUAGGAUAUGGUAGGCUUUGCUUACCAGAAGGACAUUAUGAUU [JL ENG3 1.18] (Eterna round: R96, puzzle: Exclusion NG 3) ?
Out: 119 nM

In: So what does the record say about apparent KD of MS2 coat protein for ACAUGUUGCGCAGGAUAUGGGACACAUGAGGAUCACCCAUGUGGUUACAUGUCUUACCAAGCGUCCCAGAAGGGCGUGAACAUG [Ex NG2 #31] (Eterna round: R96, puzzle: Exclusion NG 2) ?
Out: 28.6 nM
